Recorded measurements of Compound MICs, Escherichia coli, ATCC BAA-198, one per entry
Test system: Escherichia coli, ATCC BAA-198
Assay: MIC testing, broth microdilution in CAMHB
Assay type: cell-based
Settings: 37° C., 18-20 hr, lowest concentration that completely inhibits visible growth
ASSAY_METRIC: Compound MICs, Escherichia coli, ATCC BAA-198 (µg/mL)

>  <CPD_SMILES>
Nc1nc(N)c2c(n1)c(Br)cc1c2ccn1Cc1ccc(F)cc1

>  <SYSTEM>
Escherichia coli, ATCC BAA-198

>  <RELATION_OPERATOR>
>

>  <READOUT_VALUE>
64

$$$$
>  <CPD_SMILES>
COc1cc(Cn2ccc3c4c(N)nc(N)nc4ccc32)cc(OC)c1

>  <SYSTEM>
Escherichia coli, ATCC BAA-198

>  <RELATION_OPERATOR>
=

>  <READOUT_VALUE>
2.37

$$$$
>  <CPD_SMILES>
COc1cccc(Cn2ccc3c4c(N)nc(N)nc4ccc32)n1

>  <SYSTEM>
Escherichia coli, ATCC BAA-198

>  <RELATION_OPERATOR>
=

>  <READOUT_VALUE>
2.37

$$$$
>  <CPD_SMILES>
Nc1nc(N)c2c(n1)c(-c1cccnc1)cc1c2ccn1Cc1ccc(F)cc1

>  <SYSTEM>
Escherichia coli, ATCC BAA-198

>  <RELATION_OPERATOR>
=

>  <READOUT_VALUE>
64

$$$$
>  <CPD_SMILES>
Nc1nc(N)c2c(ccc3c2ccn3Cc2ccc(B(O)O)cc2)n1

>  <SYSTEM>
Escherichia coli, ATCC BAA-198

>  <RELATION_OPERATOR>
=

>  <READOUT_VALUE>
21.3

$$$$
>  <CPD_SMILES>
Nc1nc(N)c2c(ccc3c2ccn3Cc2ccc3c(c2)OCO3)n1

>  <SYSTEM>
Escherichia coli, ATCC BAA-198

>  <RELATION_OPERATOR>
=

>  <READOUT_VALUE>
2.37

$$$$
>  <CPD_SMILES>
Nc1nc(N)c2c(ccc3c2ccn3Cc2ccnc(F)c2)n1

>  <SYSTEM>
Escherichia coli, ATCC BAA-198

>  <RELATION_OPERATOR>
=

>  <READOUT_VALUE>
7.11

$$$$
>  <CPD_SMILES>
Nc1nc(N)c2c(ccc3c2ccn3Cc2ccc(F)nc2)n1

>  <SYSTEM>
Escherichia coli, ATCC BAA-198

>  <RELATION_OPERATOR>
=

>  <READOUT_VALUE>
7.11

$$$$
>  <CPD_SMILES>
C=C(Cn1ccc2c3c(N)nc(N)nc3ccc21)C(=O)OC

>  <SYSTEM>
Escherichia coli, ATCC BAA-198

>  <RELATION_OPERATOR>
=

>  <READOUT_VALUE>
21.3

$$$$
